Species: Rattus norvegicus
Procedure Summary: Displacement of [3H]promegestone from progestin receptor of rat uterine cytosol at 0 degree Centigrade
Entry flag: yes if RBA reaches 20%; no if it does not.

Some solved cases for reference:
## Task Say whether CC12C=CC(=O)C=C1C1CC1C1C2C=CC2(C)C1CC[C@@]21CCC(=O)O1 (some centres undefined) shows RBA of 20% or more.
## Result no

## Task Same lookup for CC12CCC(=O)C=C1C[C@@H](SC(=O)c1ccccc1)C1C2C=CC2(C)C1CC[C@@]21CCC(=O)O1 (some centres undefined) , please.
## Result yes

## Task Same lookup for CC12C=CC(=O)C=C1C=CC1C2C=CC2(C)C1CC[C@@]21CCC(=O)O1 (some centres undefined) , please.
## Result no

## Task Same lookup for CC(=O)S[C@@H]1CC2=CC(=O)CC[C@]2(C)[C@H]2CC[C@@]3(C)[C@@H](CC[C@@]34CCC(=O)O4)[C@H]12 , please.
## Result no

## Task Same lookup for CC12CCC(=O)C=C1C1CC1C1C2C=CC2(C)C1C1CC1[C@@]21CCC(=O)O1 (some centres undefined) , please.
## Result yes

## Task Same lookup for CC12C=CC(=O)C=C1CCC1C2C=CC2(C)C1CC[C@@]21CCC(=O)O1 (some centres undefined) , please.
## Result no

Others:
## Task Say whether CC12CCC(=O)C=C1C=CC1C2C=CC2(C)C1CC[C@@]21CCC(=O)O1 (some centres undefined) shows RBA of 20% or more.
## Result no

## Task Same lookup for CC12CCC(=O)C=C1CCC1C2C=CC2(C)C1CC[C@@]21CCC(=O)O1 (some centres undefined) , please.
## Result yes

## Task Same lookup for CC12CCC(=O)C=C1C1CC1C1C2C=CC2(C)C1CC[C@@]21CCC(=O)O1 (some centres undefined) , please.
## Result yes

----------
Study Target: Mineralocorticoid receptor (Rattus norvegicus)
Sequence (whole entry): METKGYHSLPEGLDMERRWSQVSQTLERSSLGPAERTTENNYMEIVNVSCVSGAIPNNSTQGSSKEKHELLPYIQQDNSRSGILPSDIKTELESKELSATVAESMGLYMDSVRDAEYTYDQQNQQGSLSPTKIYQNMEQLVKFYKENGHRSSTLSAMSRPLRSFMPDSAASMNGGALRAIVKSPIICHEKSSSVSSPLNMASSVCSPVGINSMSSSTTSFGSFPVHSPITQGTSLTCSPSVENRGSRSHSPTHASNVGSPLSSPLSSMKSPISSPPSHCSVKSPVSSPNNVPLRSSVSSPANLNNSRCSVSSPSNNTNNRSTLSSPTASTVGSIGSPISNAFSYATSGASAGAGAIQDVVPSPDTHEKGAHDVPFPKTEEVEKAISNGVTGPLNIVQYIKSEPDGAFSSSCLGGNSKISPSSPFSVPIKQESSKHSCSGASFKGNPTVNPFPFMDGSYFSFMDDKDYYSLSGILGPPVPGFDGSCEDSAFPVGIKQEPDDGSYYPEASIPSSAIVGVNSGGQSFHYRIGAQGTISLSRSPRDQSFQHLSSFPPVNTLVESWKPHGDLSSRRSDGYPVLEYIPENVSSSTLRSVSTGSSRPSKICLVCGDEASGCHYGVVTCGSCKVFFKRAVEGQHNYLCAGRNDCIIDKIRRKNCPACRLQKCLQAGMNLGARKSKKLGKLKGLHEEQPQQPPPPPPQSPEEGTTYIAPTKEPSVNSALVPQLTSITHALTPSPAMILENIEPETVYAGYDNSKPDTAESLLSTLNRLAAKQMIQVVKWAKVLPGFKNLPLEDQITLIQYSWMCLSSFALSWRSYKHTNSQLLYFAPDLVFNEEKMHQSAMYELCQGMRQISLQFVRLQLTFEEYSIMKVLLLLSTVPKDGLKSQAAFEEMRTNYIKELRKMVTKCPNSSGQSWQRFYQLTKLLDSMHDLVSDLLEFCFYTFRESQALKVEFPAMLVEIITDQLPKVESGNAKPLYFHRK
Procedure Summary: In vivo relative Mineralocorticoid activity in Male Sprague-Dawley rats
Type: functional, organism-based
Value Kind: Relative activity
// no unit, no text: just the number

Worked cases, answers included:
## Task Request the reported Relative activity associated with C[C@]12CC[C@@H]3C4CCC(=O)C=C4CC[C@H]3[C@@H]1CC[C@@H]2C(=O)CO (stereo not given in full)
## Result 1.5

## Task Same lookup for CC12CCC(=O)C=C1CCC1C2C=CC2(C)C(C(=O)CO)CCC12 (stereo not given) , please.
## Result 1

## Task Same lookup for C[C@]12CCC(=O)C=C1CC[C@@H]1[C@@H]2[C@@H](O)C[C@]2(C=O)[C@@H](C(=O)CO)CC[C@@H]12 , please.
## Result 30

## Task Same lookup for C[C@]12C[C@H](O)[C@H]3[C@@H](CCC4=CC(=O)CC[C@@]43C)[C@@H]1CC[C@@H]2C(=O)CO , please.
## Result 0.14

// next item, Relative activity requested
## Task Request the reported Relative activity associated with C[C@]12CC[C@H]3[C@@H](CCC4=CC(=O)CC[C@@]43C)[C@@H]1CC[C@@H]2C(=O)CO
## Result 1
